SYSTEM_TESTED: T1, Human Nectin-4 (residues Gly32-Ser349; NCBI RefSeq: NP_112178.2) with C-terminal FLAG tag (human, UniProt Q96NY8 32-349, randomly biotinylated with EZ-Link Sulfo-NHS-LC-LC-Biotin)
T1 construct: range 32-349; also called human Nectin-4 protein; not shown: C-terminal FLAG tag
T1 sequence (looked up): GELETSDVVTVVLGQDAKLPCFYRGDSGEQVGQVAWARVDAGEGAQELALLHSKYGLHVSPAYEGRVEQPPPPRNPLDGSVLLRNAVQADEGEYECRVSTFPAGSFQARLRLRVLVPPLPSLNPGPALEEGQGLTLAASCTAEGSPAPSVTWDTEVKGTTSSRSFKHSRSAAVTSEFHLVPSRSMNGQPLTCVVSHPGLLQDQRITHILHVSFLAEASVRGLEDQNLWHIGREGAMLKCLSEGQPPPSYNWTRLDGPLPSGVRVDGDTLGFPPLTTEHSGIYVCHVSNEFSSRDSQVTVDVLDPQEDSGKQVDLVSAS
ASSAY_REMARKS: SPR (Biacore 3000), biotinylated human Nectin-4 on streptavidin chip
Starred links: 1 amine or outer side, 2 acyl side, 3 side chain; linkers in the order of their positions; H or OH if unused. Positions of bridges follow the written chain, without caps; N, C: chain ends. Non-standard residues stand in square brackets, D forms with d. Chains are numbered I, II in the order given. No end group written: not given here. *: point of attachment. TATA = O=C(CC[*:1])N1CN(C(=O)CC[*:2])CN(C(=O)CC[*:3])C1; 1Nal = N[C@@H](Cc1cccc2ccccc12)C(=O)O; Hyp = O=C(O)[C@@H]1C[C@@H](O)CN1; hArg = N=C(N)NCCCC[C@H](N)C(=O)O; tBuAla = CC(C)(C)C[C@H](N)C(=O)O; Nle = CCCC[C@H](N)C(=O)O; Pent4ynoyl = C#CCCC(=O)*; Dap = NC[C@H](N)C(=O)O; βAla = NCCC(=O)O; Sar = CNCC(=O)O
QUANTITY_MEASURED: pKd
// pKd here means minus log10 of the molar concentration (mol/L)

BINDER	pKd
heterotandem bicyclic peptide complex BCY9759 (BCY7732: N-terminal acetyl; Nle12; C-terminal Dap (diaminopropionic acid) bearing the linker; Ci, Cii, Ciii on TATA scaffold; BCY8116: linker on N-terminus; 1Nal2, dD3, HArg5, HyP11; Ci, Cii, Ciii on TATA scaffold) peptide 1: CPXDCMXDWSTPXWC peptide 2: ACIEEGQYCFADPYXC	8.67

Exercise: Consider the binder heterotandem bicyclic peptide complex BCY9351 (BCY8045: N-terminal acetyl; D-Ala8, Nle12; C-terminal Dap (diaminopropionic acid) bearing the linker; Ci, Cii, Ciii on TATA scaffold; BCY8846: N-terminal [PYA]-[B-Ala]-[Sar10]- (linker on PYA); 1Nal2, dD3, HArg5, HyP11; Ci, Cii, Ciii on TATA scaffold) peptide 1: CPXDCMXDWSTPXWC peptide 2: ACIEEGQYCFADPYXC . State its measured pKd.
Key: 8.61

Exercise: Given the binder heterotandem bicyclic peptide complex BCY10000 (linker I:11-I:15-I:25, II:1-II:8-II:15 via TATA; not fully specified (C-terminus); numbers in words are those of the source; also: linker to a chain's N/C-terminus via PEG12) peptide 1: {Pent4ynoyl-βAla}-[Sar][Sar][Sar][Sar][Sar][Sar][Sar][Sar][Sar][Sar]CP[1Nal][dD]CM[hArg]DWSTP[Hyp]WC peptide 2: Ac-C[tBuAla]PE[dA]PYCFADPY[Nle]C[Dap] , write its reported pKd.
Key: 8.65

Exercise: Return the recorded pKd value; entry: heterotandem bicyclic peptide complex BCY8854 (BCY7732: N-terminal acetyl; Nle12; C-terminal Dap (diaminopropionic acid) bearing the linker; Ci, Cii, Ciii on TATA scaffold; BCY8846: N-terminal [PYA]-[B-Ala]-[Sar10]- (linker on PYA); 1Nal2, dD3, HArg5, HyP11; Ci, Cii, Ciii on TATA scaffold) peptide 1: CPXDCMXDWSTPXWC peptide 2: ACIEEGQYCFADPYXC
Key: 8.56
